System Name: T1, human melanocortin-3 receptor (hMC3-R) (human, UniProt P41968 1-323)
T1 construct: whole, on cells; membranes prepared from hMC3-R cells were used; also called Melanocortin Receptor 3
T1 sequence (P41968 whole entry): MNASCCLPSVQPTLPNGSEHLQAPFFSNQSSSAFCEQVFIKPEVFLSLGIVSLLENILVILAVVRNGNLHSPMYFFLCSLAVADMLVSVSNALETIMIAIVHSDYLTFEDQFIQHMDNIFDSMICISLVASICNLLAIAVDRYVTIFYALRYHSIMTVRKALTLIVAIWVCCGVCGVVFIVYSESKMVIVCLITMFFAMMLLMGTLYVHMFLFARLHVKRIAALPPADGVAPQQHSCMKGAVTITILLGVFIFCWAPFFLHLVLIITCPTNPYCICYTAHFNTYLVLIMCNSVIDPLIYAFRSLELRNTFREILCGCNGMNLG
Assay Details: 125I-NDP-α-MSH competition, hMC3-R membranes
Square brackets hold non-standard residues; d marks the D form. Ends that are not written are not given here. Nle = CCCC[C@H](N)C(=O)O
Assay Readout: % Inhibition at 1 µM (%)
Give bare numbers, in %.

YV[Nle]GH[dF]RWCRF-NH2 (also: oxorhenium(V) N3S1 chelate: C9 SG + backbone N of R7, W8, C9, bridge at 9 via Re(V)=O, other end not in the chain) [metallopeptide 5-3] | 93
YVXGHFRWDRF (Nle 3 (X in letters); D-Phe 6; C-terminal amide, not complexed to Re) [[Nle3, D-Phe6]-γ-MSH parent polypeptide Tyr-Val-Nle-Gly-His-D-Phe-Arg-Trp-Asp-Arg-Phe-NH2] | 100
YV[Nle]GC[dF]RWDRF-NH2 (also: oxorhenium(V) N3S1 chelate: C5 SG + backbone N of X3, G4, C5, bridge at 5 via Re(V)=O, other end not in the chain) [metallopeptide 5-7] | 70

**Query** Return % Inhibition at 1 µM (reported value) for this binder: YV[Nle]CH[dF]RWDRF-NH2 (also: oxorhenium(V) N3S1 chelate: C4 SG + backbone N of V2, X3, C4, bridge at 4 via Re(V)=O, other end not in the chain) [metallopeptide 5-8]
**Result** 89
